// reported IC50 per item
- Target of assay: hEP3 subtype (hEP3α, hEP3-21 and hEP3-9 isoforms) (Homo sapiens, UniProt P43115)
- Sequence (P43115 1-390): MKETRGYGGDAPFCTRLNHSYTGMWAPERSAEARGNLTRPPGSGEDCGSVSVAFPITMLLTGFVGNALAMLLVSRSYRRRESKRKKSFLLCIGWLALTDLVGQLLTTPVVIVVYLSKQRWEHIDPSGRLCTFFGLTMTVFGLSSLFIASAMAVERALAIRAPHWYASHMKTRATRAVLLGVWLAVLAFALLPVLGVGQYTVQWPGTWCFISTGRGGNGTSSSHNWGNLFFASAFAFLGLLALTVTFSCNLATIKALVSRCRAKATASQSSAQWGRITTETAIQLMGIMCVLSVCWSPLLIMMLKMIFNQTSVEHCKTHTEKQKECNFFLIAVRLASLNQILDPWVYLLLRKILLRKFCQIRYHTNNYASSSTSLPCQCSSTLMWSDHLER
- Assay notes: [3H]PGE2 competition binding, value stated across the three hEP3 isoforms

CC(C)Oc1ccc2c(=O)c3cc(C(=O)O)ccc3oc2c1 [AH6809]
2 to 7 µM

Please look at the following molecule next.
Q) Quick one: IC50 for CCCCC(C)(O)C/C=C/[C@H]1[C@H](O)CC(=O)[C@@H]1CCCCCCC(=O)OC (mixture of isomers) [misoprostol] ?
A) 0.3 to 1.2 µM
